Test system: D54 LucT luciferase reporter counterscreen, luminescence, 24 h
protocol description: reporter signal increase, D54 LucT cells – cell-based, luminescence, cherry pick, counter-screen for N-linked glycosylation inhibitor project, dose response (AID 624404)
Inconclusive results are not listed.

compound	tested on	AC35
CCn1ncc(C2=NOC(C(=O)NCc3ccccc3)C2)c1C (centres undefined)	D54 LucT luciferase reporter counterscreen, luminescence, 24 h	9540 nM
COc1ccccc1C(=O)Nc1ccc2c(c1)nc(CCNC(=O)c1ccco1)n2C	D54 LucT luciferase reporter counterscreen, luminescence, 24 h	45.3 nM
O=C(/C=C/c1cccc(Br)c1)c1ccc2c(c1)OCO2	D54 LucT luciferase reporter counterscreen, luminescence, 24 h	951 nM
C[C@@]12C(=O)Nc3cc(Cl)ccc3C(=O)N1[C@H]1c3ccccc3OC[C@@H]1[C@@H]2c1ccccc1	D54 LucT luciferase reporter counterscreen, luminescence, 24 h	282 nM
COc1ccc(CC(=O)N(Cc2ccccc2)c2ccc(C)cc2)cc1S(=O)(=O)N1CCOCC1	D54 LucT luciferase reporter counterscreen, luminescence, 24 h	2500 nM
COc1cc(C(=O)OCCCN2CCCN(CCCOC(=O)c3cc(OC)c(OC)c(OC)c3)CC2)cc(OC)c1OC	D54 LucT luciferase reporter counterscreen, luminescence, 24 h	2190 nM
N#CC1=C(N)Oc2c(c(=O)sc3ccccc23)C1c1cccnc1 (centres undefined)	D54 LucT luciferase reporter counterscreen, luminescence, 24 h	1260 nM
CCc1nc2ccc(C(=O)NCCc3c[nH]c4ccccc34)cn2c1N(C=O)CCC(C)C	D54 LucT luciferase reporter counterscreen, luminescence, 24 h	645 nM
COc1ccc(-c2cc3ccccc3oc2=O)cc1NC(=O)c1ccc([N+](=O)[O-])o1	D54 LucT luciferase reporter counterscreen, luminescence, 24 h	837 nM
COc1ccc(CCNC(=O)c2cc(-c3ccco3)on2)cc1OC	D54 LucT luciferase reporter counterscreen, luminescence, 24 h	15000 nM
COc1ccc2c(c1)[C@H]1[C@H](CO2)[C@H](c2ccccc2)[C@]2(C)C(=O)Nc3cc(C)ccc3C(=O)N12	D54 LucT luciferase reporter counterscreen, luminescence, 24 h	66.8 nM
Cc1ccc(Nc2nc(-c3sc(C)nc3C)cs2)cc1	D54 LucT luciferase reporter counterscreen, luminescence, 24 h	46.9 nM
O=C(NCCN1C(=O)S/C(=C\c2ccccc2F)C1=O)C1=COCCO1	D54 LucT luciferase reporter counterscreen, luminescence, 24 h	214 nM
Cc1ccc(C(=O)NC(=C(Cl)Cl)S(=O)(=O)c2ccc(Cl)cc2)cc1	D54 LucT luciferase reporter counterscreen, luminescence, 24 h	12700 nM
